Please provide measured IC50 for the entries that follow.
# System: IL-1β cytokine output from THP-1s
# Protocol Notes: THP-1 AlphaLISA IL-1β cytokine assay
# Format: cell-based, human
# Assay Setup: Homo sapiens, THP-1, PMA-differentiated THP-1 cells, LPS 24 hr then Nigericin 1 hour; read-out: IL-1β (IC50)
Answer format: numeric, µM implied, no suffix.

Q: I have this compound here, C=C(CC(=O)OCCCCCCCC)C(=O)OCC(=O)N(C)CC(=O)O , and I need its recorded IC50.
Result: 2.1

Q: Can you share its IC50? I mean this compound: C=C(CC(=O)OC)C(=O)OCCS(C)(=O)=O
Result: 28.2

Q: If you can, please state the reported IC50 value of C=C(CC(=O)OCCCOc1ccccc1)C(=O)OCC(=O)O .
Result: 80.6
